From: PubChem BioAssay AID2060910

Listed here are molecules together with their documented IC50.
System: 242566-281-R-J2-PDC complex spheroid viability
experiment-summary: Anticancer human tumor 242566-281-R-J2-PDC patient-derived pancreatic carcinoma cell line growth inhibition [RAS]
assay-conditions: curve of first compound; second compound 0.0316 µM

molecule	unit-abbreviation	modifier-sign	IC50
CCN1CCN(Cc2ccc(Nc3ncc(F)c(-c4cc(F)c5nc(C)n(C(C)C)c5c4)n3)nc2)CC1 + C#Cc1c(F)ccc2cc(O)cc(-c3ncc4c(N5CC6CCC(C5)N6)nc(OCC56CCCN5CC(F)C6)nc4c3F)c12	µM	>	1
CC1(O)CCCC1n1c(=O)c(C(F)F)cc2cnc(NC3CCN(S(C)(=O)=O)CC3)nc21 (centres undefined) + C#Cc1c(F)ccc2cc(O)cc(-c3ncc4c(N5CC6CCC(C5)N6)nc(OCC56CCCN5CC(F)C6)nc4c3F)c12	µM	>	10
NC1c2ccccc2OC12CCN(c1cnc3c(N4CCCc5ncccc54)n[nH]c3n1)CC2 (centres undefined) + C#Cc1c(F)ccc2cc(O)cc(-c3ncc4c(N5CC6CCC(C5)N6)nc(OCC56CCCN5CC(F)C6)nc4c3F)c12	µM	=	0.163
CC(Nc1ccc2c(c1)OCCn1cc(N3C(=O)OCC3C(F)F)nc1-2)C(N)=O (centres undefined) + C=CC(=O)N1CCN(c2nc(OCC3CCCN3C)nc3c(F)c(-c4nc(N)cc(C)c4C(F)(F)F)c(Cl)cc23)C(C)C1	µM	=	1.71
C=CC(=O)N1CCN(c2nc(OCC3CCCN3C)nc3c(F)c(-c4nc(N)cc(C)c4C(F)(F)F)c(Cl)cc23)C(C)C1 (centres undefined) + C#Cc1c(F)ccc2cc(O)cc(-c3ncc4c(N5CC6CCC(C5)N6)nc(OCC56CCCN5CC(F)C6)nc4c3F)c12	µM	>	1
CCc1c2c(nc3ccc(O)cc13)-c1cc3c(c(=O)n1C2)COC(=O)[C@]3(O)CC + C=CC(=O)N1CCN(c2nc(OCC3CCCN3C)nc3c(F)c(-c4nc(N)cc(C)c4C(F)(F)F)c(Cl)cc23)C(C)C1	µM	=	0.0488
CCC(CC)c1cc(NC2CCC(N)C2)n2nccc2n1 (centres undefined) + C=CC(=O)N1CCN(c2nc(OCC3CCCN3C)nc3c(F)c(-c4nc(N)cc(C)c4C(F)(F)F)c(Cl)cc23)C(C)C1	µM	=	3.74
CC(=O)OC12COC1CC(O)C1(C)C(=O)C(O)C3=C(C)C(OC(=O)C(O)C(NC(=O)OC(C)(C)C)c4ccccc4)CC(O)(C(OC(=O)c4ccccc4)C21)C3(C)C (centres undefined) + C=CC(=O)N1CCN(c2nc(OCC3CCCN3C)nc3c(F)c(-c4nc(N)cc(C)c4C(F)(F)F)c(Cl)cc23)C(C)C1	µM	=	0.122
CC(C)NCC(C(=O)N1CCN(c2ncnc3c2C(C)CC3O)CC1)c1ccc(Cl)cc1 (centres undefined) + C=CC(=O)N1CCN(c2nc(OCC3CCCN3C)nc3c(F)c(-c4nc(N)cc(C)c4C(F)(F)F)c(Cl)cc23)C(C)C1	µM	>	10

----------
Listed here are molecules together with their documented viability, T/C.
Tested on: 242566-281-R-J2-PDC complex spheroid viability
experiment-summary: Anticancer human tumor 242566-281-R-J2-PDC cell line growth inhibition [RAS];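 also: spheroids exposed to compound for 7 days before readout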;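 as to viability, T/C: 100% = DMSO vehicle control wells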
assay-conditions: second compound 0.00949 µM; first compound 10 µM; stronger effect = lower value
quantity-name: viability, T/C (%)

molecule	measured-target	result-number
CC1(O)CCCC1n1c(=O)c(C(F)F)cc2cnc(NC3CCN(S(C)(=O)=O)CC3)nc21 (stereo unspecified) + CCn1c(-c2cc(N3CCN(C)CC3)cnc2C(C)OC)c2c3cc(ccc31)-c1csc(n1)CC(NC(=O)C1CC1C)C(=O)N1CCCC(N1)C(=O)OCC(C)(C)C2	242566-281-R-J2-PDC complex spheroid viability	14.7
CC(C)NCC(C(=O)N1CCN(c2ncnc3c2C(C)CC3O)CC1)c1ccc(Cl)cc1 (stereo unspecified) + CCn1c(-c2cc(N3CCN(C)CC3)cnc2C(C)OC)c2c3cc(ccc31)-c1csc(n1)CC(NC(=O)C1CC1C)C(=O)N1CCCC(N1)C(=O)OCC(C)(C)C2	242566-281-R-J2-PDC complex spheroid viability	17.9
C[C@@H](NC(=O)c1ncnc(N)c1Cl)c1ncc(C(=O)Nc2cc(C(F)(F)F)c(Cl)cn2)s1 + CCn1c(-c2cccnc2C(C)OC)c2c3cc(ccc31)N1CCOC(CC(NC(=O)C(C(C)C)N(C)C(=O)C3(F)CCN(C(=O)C#CC(C)(C)N(C)C)CC3)C(=O)N3CCCC(N3)C(=O)OCC(C)(C)C2)C1	242566-281-R-J2-PDC complex spheroid viability	83.1
CC(C)NCC(C(=O)N1CCN(c2ncnc3c2C(C)CC3O)CC1)c1ccc(Cl)cc1 (stereo unspecified) + CCn1c(-c2cccnc2C(C)OC)c2c3cc(ccc31)N1CCOC(CC(NC(=O)C(C(C)C)N(C)C(=O)C3(F)CCN(C(=O)C#CC(C)(C)N(C)C)CC3)C(=O)N3CCCC(N3)C(=O)OCC(C)(C)C2)C1	242566-281-R-J2-PDC complex spheroid viability	56.4
CCC(CC)c1cc(NC2CCC(N)C2)n2nccc2n1 (stereo unspecified) + CCn1c(-c2cccnc2C(C)OC)c2c3cc(ccc31)N1CCOC(CC(NC(=O)C(C(C)C)N(C)C(=O)C3(F)CCN(C(=O)C#CC(C)(C)N(C)C)CC3)C(=O)N3CCCC(N3)C(=O)OCC(C)(C)C2)C1	242566-281-R-J2-PDC complex spheroid viability	2.19
CC(=O)OC12COC1CC(O)C1(C)C(=O)C(O)C3=C(C)C(OC(=O)C(O)C(NC(=O)OC(C)(C)C)c4ccccc4)CC(O)(C(OC(=O)c4ccccc4)C21)C3(C)C (stereo unspecified) + CCn1c(-c2cccnc2C(C)OC)c2c3cc(ccc31)N1CCOC(CC(NC(=O)C(C(C)C)N(C)C(=O)C3(F)CCN(C(=O)C#CC(C)(C)N(C)C)CC3)C(=O)N3CCCC(N3)C(=O)OCC(C)(C)C2)C1	242566-281-R-J2-PDC complex spheroid viability	34.9

----------
Tested on: 242566-281-R-J2-PDC complex spheroid viability
experiment-summary: Anticancer human tumor 242566-281-R-J2-PDC cell line growth inhibition [RAS];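 also: spheroids exposed to compound for 7 days before readout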;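 as to viability, T/C: 100% = DMSO vehicle control wells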
assay-conditions: second compound 0.000949 µM; first compound 0.1 µM; stronger effect = lower value
Listed here are molecules together with their documented viability, T/C.

molecule	measured-target	unit-abbreviation	viability, T/C
C=CC(=O)Nc1cc(Nc2nccc(-c3cn(C)c4ccccc34)n2)c(OC)cc1N(C)CCN(C)C + CCn1c(-c2cccnc2C(C)OC)c2c3cc(ccc31)N1CCOC(CC(NC(=O)C(C(C)C)N(C)C(=O)C3(F)CCN(C(=O)C#CC(C)(C)N(C)C)CC3)C(=O)N3CCCC(N3)C(=O)OCC(C)(C)C2)C1	242566-281-R-J2-PDC complex spheroid viability	%	91
CC(=O)OC12COC1CC(O)C1(C)C(=O)C(O)C3=C(C)C(OC(=O)C(O)C(NC(=O)OC(C)(C)C)c4ccccc4)CC(O)(C(OC(=O)c4ccccc4)C21)C3(C)C (configuration not stated) + CCn1c(-c2cccnc2C(C)OC)c2c3cc(ccc31)N1CCOC(CC(NC(=O)C(C(C)C)N(C)C(=O)C3(F)CCN(C(=O)C#CC(C)(C)N(C)C)CC3)C(=O)N3CCCC(N3)C(=O)OCC(C)(C)C2)C1	242566-281-R-J2-PDC complex spheroid viability	%	33.6
CC1(O)CCCC1n1c(=O)c(C(F)F)cc2cnc(NC3CCN(S(C)(=O)=O)CC3)nc21 (configuration not stated) + CCn1c(-c2cccnc2C(C)OC)c2c3cc(ccc31)N1CCOC(CC(NC(=O)C(C(C)C)N(C)C(=O)C3(F)CCN(C(=O)C#CC(C)(C)N(C)C)CC3)C(=O)N3CCCC(N3)C(=O)OCC(C)(C)C2)C1	242566-281-R-J2-PDC complex spheroid viability	%	70.1
C=CC(=O)N1CCN(c2nc(OCC3CCCN3C)nc3c(F)c(-c4nc(N)cc(C)c4C(F)(F)F)c(Cl)cc23)C(C)C1 (configuration not stated) + CCn1c(-c2cccnc2C(C)OC)c2c3cc(ccc31)N1CCOC(CC(NC(=O)C(C(C)C)N(C)C(=O)C3(F)CCN(C(=O)C#CC(C)(C)N(C)C)CC3)C(=O)N3CCCC(N3)C(=O)OCC(C)(C)C2)C1	242566-281-R-J2-PDC complex spheroid viability	%	113
Nc1ccn(C2OC(CO)C(O)C2(F)F)c(=O)n1 (configuration not stated) + CCn1c(-c2cc(N3CCN(C)CC3)cnc2C(C)OC)c2c3cc(ccc31)-c1csc(n1)CC(NC(=O)C1CC1C)C(=O)N1CCCC(N1)C(=O)OCC(C)(C)C2	242566-281-R-J2-PDC complex spheroid viability	%	36.5
C=CC(=O)N1CCN(c2nc(OCC3CCCN3C)nc3c(F)c(-c4nc(N)cc(C)c4C(F)(F)F)c(Cl)cc23)C(C)C1 (configuration not stated) + CCn1c(-c2cc(N3CCN(C)CC3)cnc2C(C)OC)c2c3cc(ccc31)-c1csc(n1)CC(NC(=O)C1CC1C)C(=O)N1CCCC(N1)C(=O)OCC(C)(C)C2	242566-281-R-J2-PDC complex spheroid viability	%	96.7
O=C(c1ccc(F)c(F)c1Nc1ccc(I)cc1F)N1CC(O)([C@@H]2CCCCN2)C1 + CCn1c(-c2cccnc2C(C)OC)c2c3cc(ccc31)N1CCOC(CC(NC(=O)C(C(C)C)N(C)C(=O)C3(F)CCN(C(=O)C#CC(C)(C)N(C)C)CC3)C(=O)N3CCCC(N3)C(=O)OCC(C)(C)C2)C1	242566-281-R-J2-PDC complex spheroid viability	%	53.2
